The values you see were collected from patent US20210388087A1.

Some binders, each annotated with its measured fold change of affinity.
# experimentalSystem: T1, Human CD137 ECD (human)
# T1 construct: entry includes C-terminal His-tag and biotin acceptor peptide; also called human CD137 extracellular domain; 4-1BB
# T1 sequence (chain, as listed by the source limits assumed): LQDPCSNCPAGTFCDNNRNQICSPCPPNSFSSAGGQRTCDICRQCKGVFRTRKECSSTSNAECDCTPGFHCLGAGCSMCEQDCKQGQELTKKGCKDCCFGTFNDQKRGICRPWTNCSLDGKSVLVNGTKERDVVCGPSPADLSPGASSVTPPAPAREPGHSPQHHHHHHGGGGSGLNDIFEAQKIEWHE
# procedureDetails: Biacore SPR, vs parent H183/L072

binder	fold change of affinity
H183/L072 VL S52E (antibody, name in Kabat numbering, V domains shown, Dual-Ig) VH: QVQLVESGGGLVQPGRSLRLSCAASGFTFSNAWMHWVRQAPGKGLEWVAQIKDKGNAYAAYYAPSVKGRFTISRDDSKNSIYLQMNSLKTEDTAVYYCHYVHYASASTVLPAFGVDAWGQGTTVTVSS VL: DIVMTQSPLSLPVTPGEPASISCQASQELVHMNRNTYLHWYQQKPGQAPRLLIYKVENRFPGVPDRFSGSGSGTDFTLKISRVEAEDVGVYYCAQGTSVPFTFGQGTKLEIK	1 fold
H183/L072 VL T97D (antibody, name in Kabat numbering, V domains shown, Dual-Ig) VH: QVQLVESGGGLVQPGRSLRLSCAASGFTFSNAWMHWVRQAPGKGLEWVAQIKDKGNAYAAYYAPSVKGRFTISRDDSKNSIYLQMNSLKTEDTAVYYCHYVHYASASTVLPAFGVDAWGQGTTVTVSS VL: DIVMTQSPLSLPVTPGEPASISCQASQELVHMNRNTYLHWYQQKPGQAPRLLIYKVSNRFPGVPDRFSGSGSGTDFTLKISRVEAEDVGVYYCAQGTSVPFDFGQGTKLEIK	0 fold
H183/L072 VL A89W (antibody, name in Kabat numbering, V domains shown, Dual-Ig) VH: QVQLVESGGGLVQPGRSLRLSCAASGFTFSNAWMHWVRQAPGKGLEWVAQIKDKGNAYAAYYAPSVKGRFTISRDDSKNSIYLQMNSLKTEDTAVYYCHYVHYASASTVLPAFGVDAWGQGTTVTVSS VL: DIVMTQSPLSLPVTPGEPASISCQASQELVHMNRNTYLHWYQQKPGQAPRLLIYKVSNRFPGVPDRFSGSGSGTDFTLKISRVEAEDVGVYYCWQGTSVPFTFGQGTKLEIK	0 fold
